assay: Stability in human liver microsomes without and with cimetidine or furafylline (Example 4); type: in vitro ADME; settings: human, liver microsomes, pH 7.4, with cimetidine 100 μM; substrate 1 μM, plus 100 μM cimetidine
readoutLabel: microsomal CLint at 1 μM (µL/min/mg)

compound="COC(=O)Nc1nc2ccc(C(=O)c3ccccc3)cc2[nH]1 [Mebendazole]" result=17.8
compound="CCOc1ccc(NC(C)=O)cc1 [Phenacetin]" result=17.6

---

test: in vitro; conditions: human, cryopreserved hepatocytes, with fluvoxamine 3 μM
readoutLabel: half-life at 1 μM (min)
Expressed in min, but write only the number.

Sure, the documented half-life at 1 μM for COC(=O)Nc1nc2ccc(C(=O)c3ccccc3)cc2[nH]1 [Mebendazole] is 170

---

assay: Stability in human cryopreserved hepatocytes without and with cimetidine or thiabendazole (Example 6); conditions: human, cryopreserved hepatocytes (suspension), t½, substrate 1 μM, no inhibitor
readoutLabel: half-life at 1 μM (min)

1 = CCOc1ccc2ccc(=O)oc2c1
2 = O=c1ccc2ccc(O)cc2o1
Lookup: Given the two records 1 and 2 , choose the one whose half-life at 1 μM value is lower. Return value: the label identifying the chosen record.
Found: 2
(2: 6.05 min, 1: 13.2 min)

---

test: Stability in human cryopreserved hepatocytes without and with cimetidine or furafylline (Example 5); format: in vitro ADME; settings: human, cryopreserved hepatocytes, with cimetidine 100 μM, substrate 1 μM, 100 μM cimetidine; read-out: intrinsic clearance
readoutLabel: hepatocyte CLint at 1 µM (µL/min/1e6 cells)
Expressed in µL/min/1e6 cells, but write only the number.

Sure, the documented hepatocyte CLint at 1 µM for COC(=O)Nc1nc2ccc(C(=O)c3ccccc3)cc2[nH]1 [Mebendazole] is 14.7

---

assay: in vitro; details: human, cryopreserved hepatocytes (suspension), with fluvoxamine 10 μM
readoutLabel: hepatocyte CLint at 1 µM (µL/min/1e6 cells)
Expressed in µL/min/1e6 cells, but write only the number.

Sure, the documented hepatocyte CLint at 1 µM for "COC(=O)Nc1nc2ccc(C(=O)c3ccccc3)cc2[nH]1" is 10.8

---

Target: BCRP (Homo sapiens)
Sequence (Q9UNQ0 1-655): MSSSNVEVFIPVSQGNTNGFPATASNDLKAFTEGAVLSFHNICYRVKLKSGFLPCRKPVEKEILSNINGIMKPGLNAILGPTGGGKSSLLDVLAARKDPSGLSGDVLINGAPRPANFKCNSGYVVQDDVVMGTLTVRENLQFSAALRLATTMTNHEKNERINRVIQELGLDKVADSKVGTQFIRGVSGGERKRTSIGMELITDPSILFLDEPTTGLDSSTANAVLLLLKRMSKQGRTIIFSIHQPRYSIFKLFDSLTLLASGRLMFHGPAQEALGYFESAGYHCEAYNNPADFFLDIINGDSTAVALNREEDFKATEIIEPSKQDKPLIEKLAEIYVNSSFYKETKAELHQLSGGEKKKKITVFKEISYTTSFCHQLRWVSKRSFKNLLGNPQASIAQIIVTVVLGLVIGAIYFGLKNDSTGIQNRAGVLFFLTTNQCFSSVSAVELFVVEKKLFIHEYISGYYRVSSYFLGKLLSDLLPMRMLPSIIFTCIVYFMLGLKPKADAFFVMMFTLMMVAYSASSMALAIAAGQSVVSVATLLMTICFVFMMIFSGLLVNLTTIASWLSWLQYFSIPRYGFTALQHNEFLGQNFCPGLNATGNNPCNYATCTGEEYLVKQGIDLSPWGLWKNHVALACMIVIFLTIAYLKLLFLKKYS
Experiment: in vitro
Details: Caco-2, Papp Rep 1
readoutLabel: Papp B→A at 120 min, 10 μM (×10⁻⁶ cm/s)
Expressed in ×10⁻⁶ cm/s, but write only the number.

Sure, the documented Papp B→A at 120 min, 10 μM for "COC(=O)Nc1nc2ccc(C(=O)c3ccccc3)cc2[nH]1" is 28.2

---

target: P-gp (Homo sapiens); experiment: in vitro; conditions: human, Caco-2, Papp Mean
Sequence (P08183 whole entry): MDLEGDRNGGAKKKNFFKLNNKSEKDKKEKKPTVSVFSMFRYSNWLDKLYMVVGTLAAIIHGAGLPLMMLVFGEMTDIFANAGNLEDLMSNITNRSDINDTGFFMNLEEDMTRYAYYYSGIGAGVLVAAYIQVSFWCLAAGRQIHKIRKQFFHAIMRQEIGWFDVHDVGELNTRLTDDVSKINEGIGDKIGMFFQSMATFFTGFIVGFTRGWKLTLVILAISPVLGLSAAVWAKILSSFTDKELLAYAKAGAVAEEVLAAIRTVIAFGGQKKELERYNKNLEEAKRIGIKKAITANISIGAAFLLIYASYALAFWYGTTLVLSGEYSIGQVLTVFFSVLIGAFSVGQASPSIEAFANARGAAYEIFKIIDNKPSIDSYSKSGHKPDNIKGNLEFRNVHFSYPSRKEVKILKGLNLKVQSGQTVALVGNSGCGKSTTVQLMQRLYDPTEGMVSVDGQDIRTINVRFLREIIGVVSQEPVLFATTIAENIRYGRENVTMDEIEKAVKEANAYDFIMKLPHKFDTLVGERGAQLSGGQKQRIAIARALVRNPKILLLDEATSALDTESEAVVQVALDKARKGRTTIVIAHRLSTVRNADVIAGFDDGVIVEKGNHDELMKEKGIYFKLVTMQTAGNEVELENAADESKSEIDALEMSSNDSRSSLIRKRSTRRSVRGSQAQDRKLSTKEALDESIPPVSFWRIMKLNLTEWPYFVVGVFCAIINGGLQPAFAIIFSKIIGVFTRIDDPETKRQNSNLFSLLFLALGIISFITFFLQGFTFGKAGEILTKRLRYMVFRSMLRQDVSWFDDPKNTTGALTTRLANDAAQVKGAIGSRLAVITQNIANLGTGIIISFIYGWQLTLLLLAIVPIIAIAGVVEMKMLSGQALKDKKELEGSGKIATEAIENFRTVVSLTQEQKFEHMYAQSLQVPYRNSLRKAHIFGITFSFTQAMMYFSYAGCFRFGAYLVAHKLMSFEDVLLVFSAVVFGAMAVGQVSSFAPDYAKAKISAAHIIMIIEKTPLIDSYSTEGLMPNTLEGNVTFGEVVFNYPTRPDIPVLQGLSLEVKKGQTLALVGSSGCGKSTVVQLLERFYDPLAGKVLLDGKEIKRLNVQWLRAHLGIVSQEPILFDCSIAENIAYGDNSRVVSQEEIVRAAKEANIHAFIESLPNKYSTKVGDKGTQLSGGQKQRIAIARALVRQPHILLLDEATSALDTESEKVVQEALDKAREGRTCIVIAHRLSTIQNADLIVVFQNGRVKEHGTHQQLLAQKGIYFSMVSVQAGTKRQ
readoutLabel: Papp B→A at 120 min, 10 μM (×10⁻⁶ cm/s)
Expressed in ×10⁻⁶ cm/s, but write only the number.

Sure, the documented Papp B→A at 120 min, 10 μM for COC(=O)Nc1nc2ccc(C(=O)c3ccccc3)cc2[nH]1 [Mebendazole] is 29.8

---

experiment: Stability in human cryopreserved hepatocytes without and with cimetidine or thiabendazole (Example 6); conditions: human, cryopreserved hepatocytes, with cimetidine 100 μM, t½, substrate 1 μM, cimetidine 100 μM
readoutLabel: half-life at 1 μM (min)
Expressed in min, but write only the number.

Sure, the documented half-life at 1 μM for "CCOc1ccc2ccc(=O)oc2c1" is 15.6

---

test: Stability in human cryopreserved hepatocytes without and with cimetidine or thiabendazole (Example 6); details: human, cryopreserved hepatocytes, with thiabendazole 10 μM, t½, substrate 1 μM, thiabendazole 10 μM
readoutLabel: half-life at 1 μM (h)
Expressed in h, but write only the number.

Sure, the documented half-life at 1 μM for "CCOc1ccc2ccc(=O)oc2c1" is 2.67

---

experiment: in vitro; conditions: human, cryopreserved hepatocytes (suspension), with fluvoxamine 10 μM
readoutLabel: hepatocyte CLint at 1 µM (µL/min/1e6 cells)
Expressed in µL/min/1e6 cells, but write only the number.

Sure, the documented hepatocyte CLint at 1 µM for "COC(=O)Nc1nc2ccc(C(=O)c3ccccc3)cc2[nH]1" is 0.751

---

test: Ricobendazole microsomal metabolic stability without and with cimetidine or furafylline (Example 8); assay type: in vitro ADME; details: human, liver microsomes, pH 7.4, with furafylline 3 μM; read-out: t½
readoutLabel: half-life at 0.1 μM (h)
Expressed in h, but write only the number.

Sure, the documented half-life at 0.1 μM for CCC[S+]([O-])c1ccc2[nH]c(NC(=O)OC)nc2c1 (stereo not shown) [Ricobendazole, albendazole sulphoxide] is 9.08

---

assay: in vitro; details: human, cryopreserved hepatocytes, with cimetidine 100 μM
readoutLabel: half-life at 1 μM (h)
Expressed in h, but write only the number.

Sure, the documented half-life at 1 μM for "COC(=O)Nc1nc2ccc(C(=O)c3ccccc3)cc2[nH]1" is 1.29

---

Assay: Stability in human cryopreserved hepatocytes without and with cimetidine or furafylline (Example 5)
Format: in vitro ADME
Conditions: human, cryopreserved hepatocytes, with cimetidine 30 μM, substrate 1 μM, cimetidine 30 μM; read-out: t1/2
Experimental: The final incubation volume was 500 μL. Two control compounds were included with each species, alongside appropriate vehicle control. The samples were analysed for mebendazole or ethoxycoumarin using LC-MS/MS. The final incubation volume was 500 μL. A positive control compound, ethoxycoumarin, for CYP1A2 was included. […] The samples were analysed for mebendazole or ethoxycoumarin using LC-MS/MS.
readoutLabel: half-life at 1 μM (min)

P = COC(=O)Nc1nc2ccc(C(=O)c3ccccc3)cc2[nH]1
Q = CCOc1ccc(NC(C)=O)cc1
Lookup: Compare the recorded half-life at 1 μM of P and Q ; state which is larger. Return value: the label identifying the chosen record.
Found: P
(P: 105 min, Q: 13.4 min)

---

assay: Stability in human liver microsomes without and with cimetidine or furafylline (Example 4); assay type: in vitro ADME; conditions: human, liver microsomes, pH 7.4, with cimetidine 100 μM; substrate 1 μM, plus 100 μM cimetidine
readoutLabel: half-life at 1 μM (min)

compound="CCOc1ccc(NC(C)=O)cc1 [Phenacetin]" readoutlabel="half-life at 1 μM" measureunit=min result=78.9
compound="COC(=O)Nc1nc2ccc(C(=O)c3ccccc3)cc2[nH]1 [Mebendazole]" readoutlabel="half-life at 1 μM" measureunit=min result=77.8

---

experiment: Stability in human liver microsomes without and with cimetidine or furafylline (Example 4); assay type: in vitro ADME; conditions: human, liver microsomes, pH 7.4; substrate 1 μM, no inhibitor
readoutLabel: half-life at 1 μM (h)

structureassmiles=CCOc1ccc(NC(C)=O)cc1 measureunit=h result=1.03
structureassmiles=COC(=O)Nc1nc2ccc(C(=O)c3ccccc3)cc2[nH]1 measureunit=h result=1.04

---

assay: Ricobendazole microsomal metabolic stability without and with cimetidine or furafylline (Example 8); assay type: in vitro ADME; conditions: human, liver microsomes, pH 7.4, with furafylline 3 μM; read-out: CLint
readoutLabel: microsomal CLint at 0.1 μM (µL/min/mg)
Expressed in µL/min/mg, but write only the number.

Sure, the documented microsomal CLint at 0.1 μM for CCC[S+]([O-])c1ccc2[nH]c(NC(=O)OC)nc2c1 (stereo not shown) [Ricobendazole, albendazole sulphoxide] is 1.27

---

assay: in vitro; conditions: human, cryopreserved hepatocytes
readoutLabel: half-life at 1 μM (h)
Expressed in h, but write only the number.

Sure, the documented half-life at 1 μM for "COC(=O)Nc1nc2ccc(C(=O)c3ccccc3)cc2[nH]1" is 1.92

---

assay: Stability in human cryopreserved hepatocytes without and with cimetidine or furafylline (Example 5); assay type: in vitro ADME; details: human, cryopreserved hepatocytes, with furafylline 30 μM, substrate 1 μM, furafylline 30 μM; read-out: t1/2
readoutLabel: half-life at 1 μM (h)

A = COC(=O)Nc1nc2ccc(C(=O)c3ccccc3)cc2[nH]1 [Mebendazole]
B = CCOc1ccc(NC(C)=O)cc1 [Phenacetin]
Lookup: Compare the recorded half-life at 1 μM of A and B ; state which is larger. Return value: the label identifying the chosen record.
Found: A
(A: 15.7 h, B: 1.83 h)
